Molecular target: T1, Peptide 8: Biotin-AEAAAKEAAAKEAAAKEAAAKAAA-Tyr-acid (N-terminal biotin; C-terminal acid)
T1 construct: control peptide without PC
T1 peptide: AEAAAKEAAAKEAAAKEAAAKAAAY
Test: scFv ELISA
Overview of reported OD450 across a group of binders:
Give a bare numeral; the unit OD450 is implied.

{"columns": ["binder", "resultType", "readoutValue"],
 "data": [
  ["PcOxP_DB03_F01 (scFv, V domains shown, scFv in periplasmic extract) VH: EVQLLESGGGLVQPGGSLRLSCAASGFTFNDFYMEWVRQAPGKGLEWVAASRNKANDYTTEYADSVKGRFTISRDNSKNTLYLQMNSLRAEDTAVYYCARDYYGSSYWYFDVWGQGTLVTVSS VL: DIQMTQSPSSLSASVGDRVTITCEASESLYSSKHKVHYLAWYQQKPGKAPKLLIYGASNRLIGVPSRFSGSGSGTDFTLTISSLQPEDFATYYCAQFYEYPLTFGGGTKVEIK", "OD450", 0.05]
]}

Kindly review the next binder as well.
[Q] What does the record list as OD450 for PcOxP_DB03_D08 (scFv, V domains shown, scFv in periplasmic extract) VH: EVQLLESGGGLVQPGGSLRLSCAASGFWFSDFYMEWVRQAPGKGLEWVAASRNKANDYTTEYADSVKGRFTISRDNSKNTLYLQMNSLRAEDTAVYYCARDYYGSAYWYFDVWGQGTLVTVSS VL: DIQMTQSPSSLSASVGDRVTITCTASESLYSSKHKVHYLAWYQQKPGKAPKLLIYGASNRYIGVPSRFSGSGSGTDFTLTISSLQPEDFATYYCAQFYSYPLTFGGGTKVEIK ?
[A] 0.05
